System: OVCAR-3
assaySummary: NCI tumour cell line growth inhibition, 48 h
The source made the active and inactive calls. Cut-off read from the data, not from the text of the source: active = GI50 up to about 1.1 µM and inactive = higher.
Outcomes: active, inactive

>  <molecule>
O=C1C(Cl)N(c2ccccc2Cl)C1c1c[nH]c2ccccc12 (centres undefined)

>  <assignedCategory>
inactive

$$$$
>  <molecule>
CCC1(c2ccc(N3C(=O)c4cc(OC)c(OC)cc4C3=O)cc2)CCC(=O)NC1=O (centres undefined)

>  <assignedCategory>
inactive

$$$$
>  <molecule>
CCOC(=O)C1=C(C)N(Cc2ccccc2)C2(O)C=CC(=O)C3C(=O)N(c4ccccc4)C(=O)C132 (centres undefined)

>  <assignedCategory>
inactive

$$$$
>  <molecule>
COc1c(C)cc2c(c1O)C1NC(C2)[C@H](O)N2C3COC(=O)[C@@]4(CS[C@@H](c5c(OC(C)=O)c(C)c6c(c53)OCO6)C12)NCCC1=C4NC2C=CC=CC12 (some centres undefined)

>  <assignedCategory>
active

$$$$
>  <molecule>
CC(=O)n1[nH]c(=O)n(-c2ccc(Cl)cc2)c1=O

>  <assignedCategory>
inactive

$$$$
>  <molecule>
Cc1c(C)c2c(c(N)c1C#N)C(=O)N(N)C2=O

>  <assignedCategory>
inactive

$$$$
>  <molecule>
CC(C)CC(NP(=O)(O)OC1OC(C)C(O)C(O)C1O)C(=O)NC(Cc1c[nH]c2ccccc12)C(=O)O (centres undefined)

>  <assignedCategory>
inactive

$$$$
>  <molecule>
CCOc1ccc2c(c1)[n+]([O-])c(-c1ccc([N+](=O)[O-])cc1)c(N)[n+]2[O-]

>  <assignedCategory>
inactive

$$$$
>  <molecule>
CC(C)CNC1=NCC(C)S1 (centres undefined)

>  <assignedCategory>
inactive

$$$$

###

System: NCI-H460
assaySummary: NCI tumour cell line growth inhibition, 48 h
Calls of active or inactive are those of the source. Cut-off read from the data, not from the text of the source: active = GI50 up to about 1.1 µM and inactive = higher.

>  <molecule>
C/C=N\n1c(C)n[nH]c1=O

>  <GI50>
> 100 µM (inactive)

$$$$
>  <molecule>
C=CCC1(CN(C)C)CC/C(=C\c2ccc(OC)cc2)C1=O (centres undefined)

>  <GI50>
> 100 µM (inactive)

$$$$
>  <molecule>
CN(C)c1n/c(=N/Cc2ccncc2)ss1

>  <GI50>
> 100 µM (inactive)

$$$$
>  <molecule>
COc1ccc2c3c([nH]c2c1[N+](=O)[O-])C(C)N(Cc1ccccc1)CC3 (centres undefined)

>  <GI50>
2.94 µM (inactive)

$$$$

###

System: LOX IMVI
assaySummary: NCI tumour cell line growth inhibition, 48 h
Active and inactive are the calls of the source. No stated cut-off is given here; in the data, active = GI50 up to about 1.1 µM and inactive = higher.
Classes used: 1.0 (active), 0.0 (inactive)

>  <compound>
Cc1ccccc1C(=O)N1CCN(C(=O)c2ccccc2C)CC1

>  <systemUnderTest>
LOX IMVI

>  <assignedCategory>
0.0

$$$$
>  <compound>
Nc1ncnc2c1nc(O)n2-c1ccccc1

>  <systemUnderTest>
LOX IMVI

>  <assignedCategory>
0.0

$$$$
>  <compound>
N#Cc1c(-c2ccccc2)c(/N=N/c2ccc(Cl)cc2)c(=O)n2c1[nH]c1ccccc12

>  <systemUnderTest>
LOX IMVI

>  <assignedCategory>
0.0

$$$$
>  <compound>
O=c1cc(CO)n(CCc2c[nH]c3ccccc23)cc1O

>  <systemUnderTest>
LOX IMVI

>  <assignedCategory>
0.0

$$$$
>  <compound>
CC(=O)n1ccc2c(Cl)ncnc21

>  <systemUnderTest>
LOX IMVI

>  <assignedCategory>
0.0

$$$$
>  <compound>
CC(=O)OC1C(O)C(C)OC(OC(=O)C2CCC3C(C2)OC2(CC(OC(=O)/C=C/c4ccccc4)C(C)CO2)C32CO2)C1OC1OC(C)C(O)C(O)C1O (stereo not drawn)

>  <systemUnderTest>
LOX IMVI

>  <assignedCategory>
1.0

$$$$
>  <compound>
C=CC(C)(O)/C=C/C=C(\C)C(CC1OC1(C)C)OC(=O)/C(C)=C\C (stereo not drawn)

>  <systemUnderTest>
LOX IMVI

>  <assignedCategory>
0.0

$$$$
>  <compound>
COc1cc(-c2[o+]c3cc(O)cc(O)c3cc2O)cc(O)c1O

>  <systemUnderTest>
LOX IMVI

>  <assignedCategory>
0.0

$$$$
>  <compound>
COc1cc2c(cc1OC)CN1CCCc3cc(OC)c(OC)cc3C1C2 (stereo not drawn)

>  <systemUnderTest>
LOX IMVI

>  <assignedCategory>
0.0

$$$$
>  <compound>
Cc1nnc2n(c1=O)CCN2C

>  <systemUnderTest>
LOX IMVI

>  <assignedCategory>
0.0

$$$$
>  <compound>
CCN(CC)P1(=S)Oc2ccc3ccccc3c2-c2c(ccc3ccccc23)O1

>  <systemUnderTest>
LOX IMVI

>  <assignedCategory>
0.0

$$$$
>  <compound>
COc1ccc(C(=O)C(CO)Oc2ccccc2OC)cc1OC (stereo not drawn)

>  <systemUnderTest>
LOX IMVI

>  <assignedCategory>
0.0

$$$$
>  <compound>
O=C1OC(c2ccccc2)(c2ccccc2)CC1CN1CCOCC1 (stereo not drawn)

>  <systemUnderTest>
LOX IMVI

>  <assignedCategory>
0.0

$$$$
>  <compound>
CC(=O)C(=[N+]=[N-])C(=O)OC(C)(C)C#N

>  <systemUnderTest>
LOX IMVI

>  <assignedCategory>
0.0

$$$$
>  <compound>
COc1ccc2c(c1)c1nn(CCN3CCCCC3)c3ccc4c(=O)n(CCN(C)C)c(=O)n2c4c13

>  <systemUnderTest>
LOX IMVI

>  <assignedCategory>
1.0

$$$$
>  <compound>
CC(C)(C)c1cc(C#N)c2c(c1)C(=O)OC2(c1ccccc1)c1ccccc1C#N (stereo not drawn)

>  <systemUnderTest>
LOX IMVI

>  <assignedCategory>
0.0

$$$$
>  <compound>
Cc1ccc(S(=O)(=O)N2CCC2c2ccccc2)cc1 (stereo not drawn)

>  <systemUnderTest>
LOX IMVI

>  <assignedCategory>
0.0

$$$$
>  <compound>
S=C(N/N=C\C=N/NC(=S)N1CCCCCC1)N1CCCCCC1

>  <systemUnderTest>
LOX IMVI

>  <assignedCategory>
0.0

$$$$
>  <compound>
NC(=O)C12CC3CC(CC(F)(C3)C1)C2

>  <systemUnderTest>
LOX IMVI

>  <assignedCategory>
0.0

$$$$
>  <compound>
CN1CC2=C(N=C(S)NC2c2ccc(Cl)cc2)/C(=C/c2ccc(Cl)cc2)C1 (stereo not drawn)

>  <systemUnderTest>
LOX IMVI

>  <assignedCategory>
0.0

$$$$
>  <compound>
O=C(N/N=C1\CCc2ccccc21)N/N=C1\CCc2ccccc21

>  <systemUnderTest>
LOX IMVI

>  <assignedCategory>
0.0

$$$$
>  <compound>
O=C1CSC(=S)N1c1ccc(F)cc1F

>  <systemUnderTest>
LOX IMVI

>  <assignedCategory>
0.0

$$$$
>  <compound>
N#Cc1c(N)n(-c2cccc(C(=O)O)c2)c(=O)c2cc([N+](=O)[O-])ccc12

>  <systemUnderTest>
LOX IMVI

>  <assignedCategory>
0.0

$$$$

###

Tested on: SN12C
assaySummary: NCI tumour cell line growth inhibition, 48 h
Active and inactive are the calls of the source. Cut-off read from the data, not from the text of the source: active = GI50 up to about 1.1 µM and inactive = higher.
Possible outcomes: active, inactive

>  <compound>
COc1ccc(-n2nnnc2C2(Nc3ccccc3)CCN(Cc3ccccc3)CC2)cc1

>  <assignedCategory>
inactive

$$$$
>  <compound>
COC1/C=C/C(C)C(O)CC(O)/C=C/C(C)C(C(C)C(OC)C(C)CCC(=O)C(C)C(C/C=C/N(C)C=O)OC)OC(=O)/C=C/C=C(\C)CC(OC)CC2=CC(=O)O[C@@H](C(C)C(OC)C1)[C@H]2O (some centres undefined)

>  <assignedCategory>
active

$$$$
>  <compound>
Cc1cc(=O)oc2cc(SC(=O)N(C)C)ccc12

>  <assignedCategory>
inactive

$$$$
>  <compound>
CCCCCCNCCCNc1c2cc(OC)ccc2nc2cccc([N+](=O)[O-])c12

>  <assignedCategory>
active

$$$$
>  <compound>
CC1(C(=O)O)C[C@](C)(C(=O)OCc2ccccc2)C[C@](C)(C(=O)OCc2ccccc2)C1 (some centres undefined)

>  <assignedCategory>
inactive

$$$$
>  <compound>
O=S1(=O)[C@H](c2ccccc2)c2c(-c3ccccc3)sc(-c3ccccc3)c2[C@@H]1c1ccccc1

>  <assignedCategory>
inactive

$$$$
>  <compound>
O=C1NC2(CCCCC2)C2CCCCC=C12 (centres undefined)

>  <assignedCategory>
inactive

$$$$
>  <compound>
COc1ccc(C(=O)C(CO)Oc2ccccc2OC)cc1OC (centres undefined)

>  <assignedCategory>
inactive

$$$$
>  <compound>
Cc1c(C(=O)O)n2c(S)nnc2c2ccccc12

>  <assignedCategory>
inactive

$$$$

Source of measurements: ChEMBL document CHEMBL1201862
